- Target or test system: human receptor tyrosine kinase like orphan receptor 1 (ROR1) (human, UniProt Q01973 30-937)
- Sequence (Q01973 30-937): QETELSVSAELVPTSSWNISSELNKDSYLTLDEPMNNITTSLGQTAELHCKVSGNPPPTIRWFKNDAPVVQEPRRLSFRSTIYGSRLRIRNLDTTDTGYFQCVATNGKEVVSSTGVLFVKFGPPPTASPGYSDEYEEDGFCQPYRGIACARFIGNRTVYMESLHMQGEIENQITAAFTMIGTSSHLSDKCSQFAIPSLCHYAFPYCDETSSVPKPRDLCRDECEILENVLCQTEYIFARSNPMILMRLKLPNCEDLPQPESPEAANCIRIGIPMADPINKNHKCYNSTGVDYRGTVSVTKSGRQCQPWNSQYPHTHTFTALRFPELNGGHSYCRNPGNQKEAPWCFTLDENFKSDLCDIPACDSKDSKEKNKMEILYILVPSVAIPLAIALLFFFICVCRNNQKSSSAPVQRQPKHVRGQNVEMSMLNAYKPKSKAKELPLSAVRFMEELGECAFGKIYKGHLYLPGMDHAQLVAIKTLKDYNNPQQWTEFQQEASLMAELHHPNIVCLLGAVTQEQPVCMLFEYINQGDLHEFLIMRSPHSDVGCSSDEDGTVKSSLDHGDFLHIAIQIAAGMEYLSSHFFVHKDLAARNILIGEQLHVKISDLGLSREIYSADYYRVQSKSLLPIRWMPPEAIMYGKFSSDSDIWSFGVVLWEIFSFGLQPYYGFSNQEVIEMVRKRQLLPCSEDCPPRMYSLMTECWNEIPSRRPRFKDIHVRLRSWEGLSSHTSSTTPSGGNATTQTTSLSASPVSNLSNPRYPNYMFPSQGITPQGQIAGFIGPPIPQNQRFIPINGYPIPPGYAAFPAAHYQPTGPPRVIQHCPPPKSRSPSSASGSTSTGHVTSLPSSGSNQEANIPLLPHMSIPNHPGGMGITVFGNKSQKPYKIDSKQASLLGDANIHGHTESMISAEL
- Assay notes: cell-based or functional assay
Property measured: IC50, cell viability (CellTiter-Glo, 72 h), HCC1187 cells (nM)

INSERT INTO measurements (binder, relation_qualifier, val) VALUES
  ('ADC-A (antibody, human IgG1, kappa, V domains shown, MC-VC-PAB-MMAE bonded via cysteine residues of the antibody (chain and positions not stated); MC-VC-PAB-MMAE bonded via cysteine residues of the antibody (chain and positions not stated); DAR 3.89 to 5.09, Antibody-drug conjugate of Ab1; also called Ab1-MC-VC-PAB-MMAE) VH: QVQLQESGPGLVKPSQTLSLTCTVSGYAFTAYNIHWVRQAPGQGLEWMGSFDPYDGGSSYNQKFKDRLTISKDTSKNQVVLTMTNMDPVDTATYYCARGWYYFDYWGHGTLVTVSS VL: DIVMTQTPLSLPVTPGEPASISCRASKSISKYLAWYQQKPGQAPRLLIYSGSTLQSGIPPRFSGSGYGTDFTLTINNIESEDAAYYFCQQHDESPYTFGEGTKVEIKR', '=', 6.8),
  ('ADC-F (antibody, human IgG1, kappa, V domains shown, SC-VC-PAB-DM1 bonded via lysine residues of the antibody (chain and positions not stated)) VH: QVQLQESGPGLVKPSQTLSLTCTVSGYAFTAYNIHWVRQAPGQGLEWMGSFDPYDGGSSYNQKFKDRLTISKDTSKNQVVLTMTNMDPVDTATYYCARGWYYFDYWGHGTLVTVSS VL: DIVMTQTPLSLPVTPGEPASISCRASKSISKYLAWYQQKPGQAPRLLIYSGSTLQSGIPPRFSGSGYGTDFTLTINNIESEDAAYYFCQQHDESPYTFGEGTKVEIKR', '>', 1000),
  ('ADC-C (antibody, human IgG1, kappa, V domains shown, MAL-VC-PAB-DM1 bonded via cysteine residues of the antibody (chain and positions not stated)) VH: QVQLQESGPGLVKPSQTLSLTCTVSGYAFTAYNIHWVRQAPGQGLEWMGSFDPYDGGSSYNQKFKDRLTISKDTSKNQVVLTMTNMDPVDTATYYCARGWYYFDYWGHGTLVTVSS VL: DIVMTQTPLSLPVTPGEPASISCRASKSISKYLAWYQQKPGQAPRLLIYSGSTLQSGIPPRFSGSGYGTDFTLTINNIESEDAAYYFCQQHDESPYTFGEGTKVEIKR', '>', 1000),
  ('ADC-B (antibody, human IgG1, kappa, V domains shown, SMCC-DM1 bonded via lysine residues of the antibody (chain and positions not stated); SMCC-DM1 bonded via lysine residues of the antibody (chain and positions not stated); DAR 3.0 to 3.20) VH: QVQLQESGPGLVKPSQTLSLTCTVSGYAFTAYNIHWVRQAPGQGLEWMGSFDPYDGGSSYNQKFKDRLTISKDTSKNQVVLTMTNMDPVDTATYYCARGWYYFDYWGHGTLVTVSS VL: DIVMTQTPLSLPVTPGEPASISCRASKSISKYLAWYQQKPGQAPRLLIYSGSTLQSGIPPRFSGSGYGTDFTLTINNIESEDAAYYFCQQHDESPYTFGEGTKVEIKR', '=', 6.2);

Where do the numbers come from? From patent USRE50631.
